Where do these numbers come from? They come from patent US20160185837A1.

molecular target: human GLP-1 receptor (human, UniProt P43220 24-463); experiment: cell-based or functional assay
1 if cAMP EC50 is below 1 nM. -1 if not; exact matches included in -1.

See these solved cases before continuing.
[Q] cAMP EC50 strictly < 1 nM for this binder? IP198 (Fc fusion) HGEGTFTSDVSSYMERQAIDEFIAWLLKGGAAAGGSGSTASSGSGSATGGGGAATHTCPPCPAPEF
[A] 1

[Q] cAMP EC50 strictly < 1 nM for this binder? IP354 (Fc fusion) YSEGMHTSDFSKLLEEEAVRLFIEWLLAGGGGGGSGGGGSGGGGSGGGGSATHTCPPC
[A] -1

[Q] cAMP EC50 strictly < 1 nM for this binder? IP252 (Fc fusion) YSEGTFTSDYSKLLEEEAVRLFIEWLVKGPGGGGGSGGGGSGGGGSAESKYGPPCPPCPAPEAA
[A] 1

[Q] cAMP EC50 strictly < 1 nM for this binder? IP325 (Fc fusion) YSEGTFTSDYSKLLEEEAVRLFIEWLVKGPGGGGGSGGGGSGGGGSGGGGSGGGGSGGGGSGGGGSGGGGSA
[A] 1

[Q] cAMP EC50 strictly < 1 nM for this binder? IP372 (Fc fusion) YSEGTFTSDYSIYLDEEAVRLFIEWLLAGGGGGGGSGGGGSGGGGSGGGGSACPPC
[A] 1

[Q] cAMP EC50 strictly < 1 nM for this binder? IP304 (Fc fusion) YSEGTFTSDVSSYLERQAIEEFIAWLLKGGAAAGGSGSTASSGSGSATGGGGAATHTCPPC
[A] 1

[Q] cAMP EC50 strictly < 1 nM for this binder? IP229 (Fc fusion) YSEGTFTSDYSKLLEEEAVRLFIEWLLAGAAAGGSGSTASSGSGSATGGGGAATHTCPPCPAPEF
[A] 1

[Q] cAMP EC50 strictly < 1 nM for this binder? IP249 (Fc fusion) YSEGTFTSDYSKLLEEEAVRLFIEWLLAQKAAAGGSGSTASSGSGSATGGGGAATHTCPPCPAPEF
[A] -1

[Q] cAMP EC50 strictly < 1 nM for this binder? IP355 (Fc fusion) YSEGTHTSLFSKLLEEEAVRLFIEWLLAGGGGGGSGGGGSGGGGSGGGGSATHTCPPC
[A] -1

Continuing:
[Q] cAMP EC50 strictly < 1 nM for this binder? IP358 (Fc fusion) YSEGTFTSDFSKLLEEEAVRLFIEWLLAGGGGGGSGGGGSGGGGSGGGGSATHTCPPC
[A] 1
